src = patent US12630530B2

Target: FGFR3 (Homo sapiens, UniProt P22607)
Construct: purchased Carna 08-135
Sequence (P22607 23-806): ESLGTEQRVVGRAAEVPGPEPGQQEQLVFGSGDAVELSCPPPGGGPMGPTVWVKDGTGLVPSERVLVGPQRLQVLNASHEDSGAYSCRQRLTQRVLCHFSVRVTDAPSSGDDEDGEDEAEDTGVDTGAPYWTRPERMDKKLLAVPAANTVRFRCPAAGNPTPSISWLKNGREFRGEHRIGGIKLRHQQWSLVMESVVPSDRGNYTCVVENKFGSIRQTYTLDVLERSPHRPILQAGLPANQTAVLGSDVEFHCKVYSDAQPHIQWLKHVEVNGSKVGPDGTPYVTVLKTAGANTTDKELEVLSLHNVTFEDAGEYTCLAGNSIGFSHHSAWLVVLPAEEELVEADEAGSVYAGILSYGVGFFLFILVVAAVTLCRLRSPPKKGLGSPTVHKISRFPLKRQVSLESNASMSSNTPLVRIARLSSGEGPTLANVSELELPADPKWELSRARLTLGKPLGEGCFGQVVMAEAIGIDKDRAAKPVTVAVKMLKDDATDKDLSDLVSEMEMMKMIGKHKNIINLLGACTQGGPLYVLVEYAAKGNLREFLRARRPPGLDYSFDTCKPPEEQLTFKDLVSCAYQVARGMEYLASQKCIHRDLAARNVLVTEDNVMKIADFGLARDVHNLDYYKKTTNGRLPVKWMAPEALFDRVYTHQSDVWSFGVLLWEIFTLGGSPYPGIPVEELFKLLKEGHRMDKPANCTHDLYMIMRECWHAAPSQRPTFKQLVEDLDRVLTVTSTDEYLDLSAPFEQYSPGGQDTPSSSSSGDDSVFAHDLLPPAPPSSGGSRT
Assay: Assay II: inhibitory activity against wild-type FGFR (HTRF KinEASE-TK)
Type: biochemical
Details: Table 2, ATP working concentration 50 μM, substrate TK 1 μM
readout_type: IC50 (nM)
Give bare numbers, in nM.

# map each compound to its IC50
1. CCN1CCN(c2ccc(NC(=O)c3n[nH]c4ccc(OC(C)c5c(Cl)cncc5Cl)cc34)cc2)CC1 (stereo not shown) [Compound 10]
2. CC(Oc1ccc2[nH]nc(C(=O)Nc3ccc(N4CCN(C)CC4)cc3)c2c1)c1c(Cl)cncc1Cl (stereo not shown) [Compound 9]
3. CC(Oc1ccc2[nH]nc(C(=O)Nc3cnn(C4CCN(C)CC4)c3)c2c1)c1c(Cl)cncc1Cl (stereo not shown) [Compound 14]
4. CC(Oc1ccc2[nH]nc(C(=O)Nc3cnn(C4CC(O)C4)c3)c2c1)c1c(Cl)cncc1Cl (stereo not shown) [Compound 12]
5. C[C@@H]1CN(c2ccc(NC(=O)c3n[nH]c4ccc(O[C@H](C)c5c(Cl)cncc5Cl)cc34)cc2)C[C@H](C)N1 [Compound 6]
6. C[C@@H](Oc1ccc2[nH]nc(C(=O)Nc3cnn(CCO)c3)c2c1)c1c(Cl)cncc1Cl [Compound 7]
7. CC(Oc1ccc2[nH]nc(C(=O)Nc3ccc(N4C[C@@H](C)N[C@@H](C)C4)nc3)c2c1)c1c(Cl)cncc1Cl (stereo partly shown) [Compound 8]

## Result
1: 98.8; 2: 102; 3: 19.2; 4: 42.9; 5: 52.2; 6: 42.6; 7: 106

---

Target: FGFR3 V555M (Homo sapiens, UniProt P22607, V555M)
Construct: purchased Signalchem F06-12GG
Sequence (P22607 23-806 V555M): as the sequence (P22607 23-806) above, with V533M counted along it
Assay: Assay I: inhibitory activity against FGFR mutants (HTRF KinEASE-TK)
Assay type: biochemical
Conditions: Table 1; ATP working concentration 20 μM, substrate TK 1 μM
Description: Assay I: Determination of Inhibitory Activity Against FGFR Mutants 1×Kinase reaction buffer was formulated with 1×volume of 5× kinase reaction buffer and 4×volume of water; 5 mM MgCl2; and 1 mM DTT. 2.3 Screening of Compounds: • 1. […] Reading fluorescence signals at 615 nm (Cryptate) and 665 nm (XL665) with Biotek. […] 3.1 Calculation of the ratio for each well: the ratio was calculated as 665/615 nm. […] Data were exported from Envision and analyzed manually. […]
readout_type: IC50 (nM)
Numbers only, in nM.

Solved entries (count: 5):
In [3]: df
Out[3]:
                                   compound  readout_type  numeric_result
0  CC(Oc1ccc2[nH]nc(C(=O)Nc3cnn(C4CCN(C)CC4)c3)c2c1)c1c(Cl)cncc1Cl (centres unmarked)          IC50            0.27
1  CC(Oc1ccc2[nH]nc(C(=O)Nc3cnn(C4CC(O)C4)c3)c2c1)c1c(Cl)cncc1Cl (centres unmarked)          IC50            0.74
2  CC(Oc1ccc2[nH]nc(C(=O)Nc3cnn(C(C)CC#N)c3)c2c1)c1c(Cl)cncc1Cl (centres unmarked)          IC50             4.6
3  CC(Oc1ccc2[nH]nc(C(=O)Nc3cnn(CCC4(O)CC4)c3)c2c1)c1c(Cl)cncc1Cl (centres unmarked)          IC50             2.1
4  CC(Oc1ccc2[nH]nc(C(=O)Nc3cnn(CCO)c3)c2c1)c1c(Cl)cncc1Cl (centres unmarked)          IC50             2.2

# map each compound to its IC50
1. CC(Oc1ccc2[nH]nc(C(=O)Nc3cnn(CCN4CCOCC4)c3)c2c1)c1c(Cl)cncc1Cl (centres unmarked)
2. C[C@@H]1CN(c2ccc(NC(=O)c3n[nH]c4ccc(O[C@H](C)c5c(Cl)cncc5Cl)cc34)cc2)C[C@H](C)N1
3. CC(Oc1ccc2[nH]nc(C(=O)Nc3cnn(CC4CCN(C)CC4)c3)c2c1)c1c(Cl)cncc1Cl (centres unmarked)

## Result
1: 0.27; 2: 0.94; 3: 0.79

---

For each entry below, report its IC50 value.
Biological target: FGFR1 V561M (Homo sapiens, UniProt P11362, V561M)
Construct: purchased Signalchem F04-13G
Sequence (P11362 22-822 V561M): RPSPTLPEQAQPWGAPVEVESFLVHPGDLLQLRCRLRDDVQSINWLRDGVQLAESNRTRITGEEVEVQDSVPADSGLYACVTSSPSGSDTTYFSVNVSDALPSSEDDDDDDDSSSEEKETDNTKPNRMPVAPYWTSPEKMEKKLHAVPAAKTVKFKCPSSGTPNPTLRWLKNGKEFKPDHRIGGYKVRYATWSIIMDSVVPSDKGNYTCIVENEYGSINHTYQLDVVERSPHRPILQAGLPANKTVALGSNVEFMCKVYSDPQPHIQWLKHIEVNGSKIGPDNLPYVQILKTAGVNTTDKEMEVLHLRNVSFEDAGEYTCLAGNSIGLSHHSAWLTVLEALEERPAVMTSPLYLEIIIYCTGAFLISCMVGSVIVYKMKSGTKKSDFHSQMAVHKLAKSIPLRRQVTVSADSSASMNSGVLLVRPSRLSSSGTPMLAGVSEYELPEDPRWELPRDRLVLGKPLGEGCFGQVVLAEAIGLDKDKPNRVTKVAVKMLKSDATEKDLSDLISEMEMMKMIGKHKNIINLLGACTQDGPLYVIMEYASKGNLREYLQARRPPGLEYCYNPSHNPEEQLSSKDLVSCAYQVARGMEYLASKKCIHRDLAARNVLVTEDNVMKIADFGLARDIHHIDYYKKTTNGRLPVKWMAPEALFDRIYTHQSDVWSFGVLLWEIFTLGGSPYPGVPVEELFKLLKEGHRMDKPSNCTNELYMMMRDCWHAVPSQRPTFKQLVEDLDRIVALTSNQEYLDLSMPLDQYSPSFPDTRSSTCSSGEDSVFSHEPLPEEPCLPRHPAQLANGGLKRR
Assay: Assay III: inhibitory activity against FGFR mutants (method of Assay I, different operator)
Assay type: biochemical
Settings: Table 3; same method as Assay I, different experimental operator
One number for each entry, in nM.

Solved entries (count: 3):
In [3]: df
Out[3]:
                                   compound  numeric_result
0  CCn1cc(NC(=O)c2n[nH]c3ccc(O[C@H](C)c4c(Cl)cncc4Cl)cc23)cn1            0.24
1  C[C@@H](Oc1ccc2[nH]nc(C(=O)Nc3cnn(CC4CCCN4C)c3)c2c1)c1c(Cl)cncc1Cl (stereo partly shown)             1.1
2  CC(Oc1ccc2[nH]nc(C(=O)Nc3cnn(CC(=O)N(C)C)c3)c2c1)c1c(Cl)cncc1Cl (stereo not shown)             3.3

// moving on: another record for IC50
## Task I would be grateful if you could share the reported IC50 for C[C@@H](Oc1ccc2[nH]nc(C(=O)Nc3cnn(CC4CCN(C)C4)c3)c2c1)c1c(Cl)cncc1Cl (stereo partly shown) .
## Result 0.37

---

Molecular target: FGFR3 K650E (Homo sapiens, UniProt P22607, K650E)
Sequence (P22607 23-806 K650E): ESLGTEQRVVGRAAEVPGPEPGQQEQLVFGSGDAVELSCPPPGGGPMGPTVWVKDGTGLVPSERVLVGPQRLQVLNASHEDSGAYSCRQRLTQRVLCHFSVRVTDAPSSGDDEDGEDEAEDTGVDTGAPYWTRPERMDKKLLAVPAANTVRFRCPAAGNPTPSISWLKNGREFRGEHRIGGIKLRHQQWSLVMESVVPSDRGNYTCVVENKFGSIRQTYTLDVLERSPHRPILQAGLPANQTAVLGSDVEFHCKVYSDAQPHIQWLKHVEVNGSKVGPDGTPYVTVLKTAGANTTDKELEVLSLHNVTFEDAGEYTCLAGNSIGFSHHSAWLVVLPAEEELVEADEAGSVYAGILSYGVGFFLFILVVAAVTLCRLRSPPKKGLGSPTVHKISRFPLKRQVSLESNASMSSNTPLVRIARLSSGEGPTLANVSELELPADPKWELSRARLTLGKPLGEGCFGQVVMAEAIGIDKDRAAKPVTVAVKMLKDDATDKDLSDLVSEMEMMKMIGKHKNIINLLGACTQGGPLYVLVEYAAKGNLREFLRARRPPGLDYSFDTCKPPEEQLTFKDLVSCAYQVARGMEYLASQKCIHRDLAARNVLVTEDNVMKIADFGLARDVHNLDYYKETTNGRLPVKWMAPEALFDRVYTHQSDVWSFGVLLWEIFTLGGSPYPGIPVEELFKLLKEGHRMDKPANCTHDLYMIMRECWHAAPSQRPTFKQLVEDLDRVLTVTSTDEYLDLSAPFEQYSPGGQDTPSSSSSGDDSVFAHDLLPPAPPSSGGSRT
Assay: Assay I: inhibitory activity against FGFR mutants (HTRF KinEASE-TK)
Type: biochemical
Settings: Table 1; ATP working concentration 50 μM, substrate TK 1 μM
For each entry below, report its IC50 value.
One number for each entry, in nM.

Solved entries (count: 2):
>>> df
                                   compound  readout_type  unit_spec  numeric_result
0  CC(Oc1ccc2[nH]nc(C(=O)Nc3cnn(C(C)CC#N)c3)c2c1)c1c(Cl)cncc1Cl (stereo not drawn)          IC50         nM            33.4
1  CC(Oc1ccc2[nH]nc(C(=O)Nc3cnn(CCO)c3)c2c1)c1c(Cl)cncc1Cl (stereo not drawn)          IC50         nM              30

// moving on: another record for IC50
## Task Entry CC(Oc1ccc2[nH]nc(C(=O)Nc3ccc(N4C[C@@H](C)N[C@@H](C)C4)cc3)c2c1)c1c(Cl)cncc1Cl (stereo partly drawn) , system FGFR3 K650E (Homo sapiens, UniProt P22607, K650E): what IC50 was measured?
## Result 26.8

---

Biological target: FGFR1 (Homo sapiens)
Construct: purchased Carna 08-133
Sequence (P11362 22-822): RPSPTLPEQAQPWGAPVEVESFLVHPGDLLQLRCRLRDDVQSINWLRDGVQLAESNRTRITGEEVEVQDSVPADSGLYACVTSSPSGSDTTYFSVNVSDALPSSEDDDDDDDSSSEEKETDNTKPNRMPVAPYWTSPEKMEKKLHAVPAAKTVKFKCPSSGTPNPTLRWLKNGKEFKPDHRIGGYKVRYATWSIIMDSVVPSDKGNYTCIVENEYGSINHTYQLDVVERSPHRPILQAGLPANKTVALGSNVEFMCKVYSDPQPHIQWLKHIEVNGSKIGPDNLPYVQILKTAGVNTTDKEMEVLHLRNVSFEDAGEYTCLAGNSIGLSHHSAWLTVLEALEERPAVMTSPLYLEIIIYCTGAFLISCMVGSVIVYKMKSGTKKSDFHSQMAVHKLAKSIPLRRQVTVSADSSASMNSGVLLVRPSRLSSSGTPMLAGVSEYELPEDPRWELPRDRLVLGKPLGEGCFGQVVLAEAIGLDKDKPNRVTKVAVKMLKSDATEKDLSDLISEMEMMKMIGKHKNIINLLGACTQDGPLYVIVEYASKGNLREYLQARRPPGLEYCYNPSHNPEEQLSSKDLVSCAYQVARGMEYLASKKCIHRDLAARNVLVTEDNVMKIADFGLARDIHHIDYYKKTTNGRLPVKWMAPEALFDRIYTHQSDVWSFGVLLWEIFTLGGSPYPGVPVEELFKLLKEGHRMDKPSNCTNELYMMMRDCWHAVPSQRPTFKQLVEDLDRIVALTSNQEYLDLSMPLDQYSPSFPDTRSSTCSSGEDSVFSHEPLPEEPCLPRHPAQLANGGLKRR
Assay: Assay II: inhibitory activity against wild-type FGFR (HTRF KinEASE-TK)
Type: biochemical
Details: Table 2, ATP working concentration 50 μM, substrate TK 1 μM
readout_type: IC50
State the value with its unit after it.

Solved entries (count: 3):
>>> print(df.to_string())
                                   molecule   result
0  CC(Oc1ccc2[nH]nc(C(=O)Nc3cnn(C4CC(O)C4)c3)c2c1)c1c(Cl)cncc1Cl (stereo not shown)  45.1 nM
1  CCN1CCN(c2ccc(NC(=O)c3n[nH]c4ccc(OC(C)c5c(Cl)cncc5Cl)cc34)cc2)CC1 (stereo not shown)  64.5 nM
2  C[C@@H]1CN(c2ccc(NC(=O)c3n[nH]c4ccc(O[C@H](C)c5c(Cl)cncc5Cl)cc34)cc2)C[C@H](C)N1  27.7 nM

// moving on: another record for IC50
## Task I would be grateful if you could share the reported IC50 for "C[C@@H](Oc1ccc2[nH]nc(C(=O)Nc3cnn(CCO)c3)c2c1)c1c(Cl)cncc1Cl" .
## Result 27.5 nM

---

Target: FGFR1 V561M (Homo sapiens, UniProt P11362, V561M)
Construct: purchased Signalchem F04-13G
Experiment: Assay I: inhibitory activity against FGFR mutants (HTRF KinEASE-TK)
Format: biochemical
Conditions: Table 1; ATP working concentration 5 μM, substrate TK 1 μM
Labelling: IC50 reported below 1 nM becomes Satisfied; at or above becomes Not satisfied.

In [3]: df
Out[3]:
                                   compound                        measurement_target  class_assignment
0  CC(Oc1ccc2[nH]nc(C(=O)Nc3cnn(CCO)c3)c2c1)c1c(Cl)cncc1Cl (stereo not shown)  FGFR1 V561M (Homo sapiens, UniProt P11362, V561M)     Not satisfied
1  CC(Oc1ccc2[nH]nc(C(=O)Nc3cnn(CCN4CCOCC4)c3)c2c1)c1c(Cl)cncc1Cl (stereo not shown)  FGFR1 V561M (Homo sapiens, UniProt P11362, V561M)         Satisfied
2  CC(Oc1ccc2[nH]nc(C(=O)Nc3ccc(N4CCC(O)CC4)cc3)c2c1)c1c(Cl)cncc1Cl (stereo not shown)  FGFR1 V561M (Homo sapiens, UniProt P11362, V561M)     Not satisfied

## Task Consider the compound CC(Oc1ccc2[nH]nc(C(=O)Nc3ccc(N4CCOCC4)nc3)c2c1)c1c(Cl)cncc1Cl (stereo not shown) . Is its IC50 strictly less than 1 nM?
## Result Not satisfied

## Task Consider the compound CCN1CCN(c2ccc(NC(=O)c3n[nH]c4ccc(OC(C)c5c(Cl)cncc5Cl)cc34)cc2)CC1 (stereo not shown) . Is its IC50 strictly less than 1 nM?
## Result Not satisfied

## Task Consider the compound CC(Oc1ccc2[nH]nc(C(=O)Nc3cnn(CC4CCN(C)CC4)c3)c2c1)c1c(Cl)cncc1Cl (stereo not shown) . Is its IC50 strictly less than 1 nM?
## Result Satisfied
